Exercise: for every item that follows, state its recorded pIC50.
Target entity: WDR5 (Homo sapiens (Human), UniProt P61964)
Experimental protocol: FP based competitive binding assay to WDR5
Study conditions: read-out: Binding Affinity to WDR5 (IC50 ± SD); Table 5 peptidomimetics
pIC50: −log10 of the molar value. Where a SMILES comes first, the peptide text is derived from it. The star is where a group is joined. Isovaleryl = CC(C)CC(=O)*; NHBn = c1ccc(CN*)cc1; Butyryl = CCCC(=O)*

Which pIC50 is reported for this molecule? `C[C@H](NC(=O)[C@H](CCCNC(=N)N)NC(=O)[C@H](C)NC(=O)CC1CCCC1)C(N)=O`
< 6.00

Try CC(=O)N[C@@H](C)C(=O)N[C@@H](CCCNC(=N)N)C(=O)N[C@@H](C)C(=O)NCc1ccccc1 [Compound 7E] (Ac-Ala-Arg-Ala-NHBn) next.
> 6.00

Try CC(C)CC(=O)N[C@@H](C)C(=O)N[C@@H](CCCNC(=N)N)C(=O)N[C@@H](C)C(N)=O [Compound 9B] (Isovaleryl-Ala-Arg-Ala-NH2) next.
< 5.00

Try CCCC(=O)N[C@@H](C)C(=O)N[C@@H](CCCNC(=N)N)C(=O)N[C@@H](C)C(N)=O [Compound 9C] (Butyryl-Ala-Arg-Ala-NH2) next.
> 5.30

Try `CCCC[C@H](NC(=O)[C@H](C)NC(C)=O)C(=O)N[C@@H](C)C(N)=O` next.
< 6.00

Try CCC(CC)(NC(=O)C(C)C)C(=O)N[C@@H](CCCNC(=N)N)C(=O)NC1CCCC1 [Compound 11I] next.
> 5.00
